Test system: MALME-3M melanoma
Experiment: NCI tumour cell line growth inhibition, 48 h
// GI50 lookup, one value per entry

Consider the worked cases shown below.
compound	GI50
CC(C)(C)C(=O)c1c(C(F)(F)F)n([O-])c2ccccc2[n+]1=O	973 nM
Cc1ccc(-c2csc(/N=C3\C(=O)Nc4ccccc43)n2)cc1	1520 nM
Cn1cc(C2=C(c3cn(CCCCN)c4ccccc34)C(=O)NC2=O)c2ccccc21	> 25000 nM

(Q) Can you share its GI50? I mean this compound: C=C1C(=O)O[C@H]2[C@H]1CC/C(COC(=O)CSCCSCC(=O)OC/C1=C/CC[C@@]3(C)O[C@H]3[C@H]3OC(=O)C(=C)[C@@H]3CC1)=C\CC[C@@]1(C)O[C@@H]21
(A) 1480 nM

(Q) And what about the compound Nc1ccc(C2=NN(c3ccccc3)C(c3ccc(Cl)cc3)C2)cc1 (centres undefined) ?
(A) 16200 nM

(Q) And what about the compound OCc1ccc(-c2ccc(-c3ccc(CO)o3)[se]2)o1 ?
(A) > 100000 nM

(Q) And what about the compound [Cl][Hg][Cl] ?
(A) 9160 nM

(Q) And what about the compound CO[C@H]1/C=C/O[C@@]2(C)Oc3c(C)c(O)c4c(c3C2=O)C(=O)C(/C=N/N(c2ccccc2)c2ccccc2)=C(NC(=O)/C(C)=C\C=C\[C@H](C)[C@H](O)[C@@H](C)[C@@H](O)[C@@H](C)[C@H](OC(C)=O)[C@@H]1C)C4=O ?
(A) 1890 nM

(Q) And what about the compound COc1cccc(-c2nc3sccn3c2-c2ccnc(NCCCNS(=O)(=O)c3cccc(F)c3)c2)c1 ?
(A) 2230 nM

###

System: CCRF-CEM leukemia
Experiment: NCI tumour cell line growth inhibition, 48 h
measurementName: GI50

inputSmiles	testValue
CO[C@H]1/C=C/O[C@@]2(C)Oc3c(C)c(O)c4c(c3C2=O)C(=O)C(/C=N/N(c2ccccc2)c2ccccc2)=C(NC(=O)/C(C)=C\C=C\[C@H](C)[C@H](O)[C@@H](C)[C@@H](O)[C@@H](C)[C@H](OC(C)=O)[C@@H]1C)C4=O	1830 nM
N[C@H](C(=O)O)[C@H]1ON=C(Cl)[C@@H]1O	5150 nM
CCOC(=O)N1CCN(c2nc(Nc3cc(C)[nH]n3)c3ccccc3n2)CC1	10100 nM

(Q) Fill in the recorded GI50 for this compound, with CCRF-CEM leukemia as test system: CCOC(=O)c1sc(-c2ccc(OS(=O)(=O)c3ccc(Br)s3)c(C=O)c2)nc1C
(A) 2360 nM

(Q) And what about the compound O=C(Nc1cccc(-n2ccc3c(NC(=O)c4ccccc4)nccc32)c1)Nc1cc(C(F)(F)F)cc(C(F)(F)F)c1 ?
(A) 1760 nM

(Q) And what about the compound CCc1cccc(C)c1NC(=O)c1sc2nc3c(cc2c1N)CCCCC3 ?
(A) 2680 nM

(Q) And what about the compound COc1cc(-c2cc3ncccc3c3nc(N)c4cccnc4c23)cc(OC)c1OC ?
(A) 481 nM

(Q) And what about the compound CCOc1ccc2nc(SCc3nc4n(n3)S(=O)(=O)c3ccccc3N4C)sc2c1 ?
(A) 64200 nM

###

Tested on: HCC-2998 colon
Test: NCI tumour cell line growth inhibition, 48 h
// TGI lookup, one value per entry

                                   compound  testvalue
0  COC(=O)C1C/C(=C/N(C)C)C(=S)N1 (stereo unspecified)   > 100 µM
1             CC1(C)N=C(C(N)=O)c2ncn(N)c2N1   > 100 µM
2  O=C1CC2(c3ccccc3)ON=C(c3ccccc3)N2c2ccccc2N1 (stereo unspecified)   > 100 µM
3  CCSc1sc(=Nc2ccc(N=c3sc(C)c(SC)s3)cc2)sc1-c1ccc(C)cc1   > 100 µM

(Q) Fill in the recorded TGI for this compound, with HCC-2998 colon as test system: CC(=O)N=C1N(/C=C2\C(=O)Oc3ccccc3C2=O)C(=O)/C(=C/c2ccc(OC(C)=O)cc2)N1C
(A) > 100 µM

(Q) And what about the compound COc1cc2c(c(OC)c1OC)-c1ccc(SC)c(=O)cc1[C@@H](NCc1ccc(C#N)cc1)CC2 ?
(A) 0.00662 µM

(Q) And what about the compound Nc1ccc(C2=NN(c3ccccc3)C(c3ccc(Cl)cc3)C2)cc1 (stereo unspecified) ?
(A) 3.29 µM

(Q) And what about the compound COCCCNC(=O)C1C(=O)N(CCCOC)C(=O)/C1=N\N (stereo unspecified) ?
(A) > 100 µM

(Q) And what about the compound O=S(=O)(Nc1ccccc1Cl)c1ccc(-c2cnc(C3CC3)o2)cc1 ?
(A) 33.3 µM

(Q) And what about the compound O=S(=O)(c1ccccc1)n1c2ccc(Br)cc2c2nc3ccccc3nc21 ?
(A) > 100 µM

(Q) And what about the compound CCOC(=O)C1=CNC(C(=O)OCC)C1c1cccn1-c1ccc(Cl)cc1[N+](=O)[O-] (stereo unspecified) ?
(A) 51.9 µM

(Q) And what about the compound Cc1nc(Nc2ccc(Cl)cc2)sc1C(=O)NNc1ccc([N+](=O)[O-])cc1[N+](=O)[O-] ?
(A) 30 µM

(Q) And what about the compound COC(=O)CCc1c[nH]c2ccc(N(CCCl)CCCl)cc12 ?
(A) 27.1 µM
